Listed next: entries and their corresponding pEC50.
target desc: ABCA4 P1380L (Homo sapiens, UniProt P78363, P1380L)
Construct: expressed in transfected cells
Sequence (P78363 whole entry P1380L): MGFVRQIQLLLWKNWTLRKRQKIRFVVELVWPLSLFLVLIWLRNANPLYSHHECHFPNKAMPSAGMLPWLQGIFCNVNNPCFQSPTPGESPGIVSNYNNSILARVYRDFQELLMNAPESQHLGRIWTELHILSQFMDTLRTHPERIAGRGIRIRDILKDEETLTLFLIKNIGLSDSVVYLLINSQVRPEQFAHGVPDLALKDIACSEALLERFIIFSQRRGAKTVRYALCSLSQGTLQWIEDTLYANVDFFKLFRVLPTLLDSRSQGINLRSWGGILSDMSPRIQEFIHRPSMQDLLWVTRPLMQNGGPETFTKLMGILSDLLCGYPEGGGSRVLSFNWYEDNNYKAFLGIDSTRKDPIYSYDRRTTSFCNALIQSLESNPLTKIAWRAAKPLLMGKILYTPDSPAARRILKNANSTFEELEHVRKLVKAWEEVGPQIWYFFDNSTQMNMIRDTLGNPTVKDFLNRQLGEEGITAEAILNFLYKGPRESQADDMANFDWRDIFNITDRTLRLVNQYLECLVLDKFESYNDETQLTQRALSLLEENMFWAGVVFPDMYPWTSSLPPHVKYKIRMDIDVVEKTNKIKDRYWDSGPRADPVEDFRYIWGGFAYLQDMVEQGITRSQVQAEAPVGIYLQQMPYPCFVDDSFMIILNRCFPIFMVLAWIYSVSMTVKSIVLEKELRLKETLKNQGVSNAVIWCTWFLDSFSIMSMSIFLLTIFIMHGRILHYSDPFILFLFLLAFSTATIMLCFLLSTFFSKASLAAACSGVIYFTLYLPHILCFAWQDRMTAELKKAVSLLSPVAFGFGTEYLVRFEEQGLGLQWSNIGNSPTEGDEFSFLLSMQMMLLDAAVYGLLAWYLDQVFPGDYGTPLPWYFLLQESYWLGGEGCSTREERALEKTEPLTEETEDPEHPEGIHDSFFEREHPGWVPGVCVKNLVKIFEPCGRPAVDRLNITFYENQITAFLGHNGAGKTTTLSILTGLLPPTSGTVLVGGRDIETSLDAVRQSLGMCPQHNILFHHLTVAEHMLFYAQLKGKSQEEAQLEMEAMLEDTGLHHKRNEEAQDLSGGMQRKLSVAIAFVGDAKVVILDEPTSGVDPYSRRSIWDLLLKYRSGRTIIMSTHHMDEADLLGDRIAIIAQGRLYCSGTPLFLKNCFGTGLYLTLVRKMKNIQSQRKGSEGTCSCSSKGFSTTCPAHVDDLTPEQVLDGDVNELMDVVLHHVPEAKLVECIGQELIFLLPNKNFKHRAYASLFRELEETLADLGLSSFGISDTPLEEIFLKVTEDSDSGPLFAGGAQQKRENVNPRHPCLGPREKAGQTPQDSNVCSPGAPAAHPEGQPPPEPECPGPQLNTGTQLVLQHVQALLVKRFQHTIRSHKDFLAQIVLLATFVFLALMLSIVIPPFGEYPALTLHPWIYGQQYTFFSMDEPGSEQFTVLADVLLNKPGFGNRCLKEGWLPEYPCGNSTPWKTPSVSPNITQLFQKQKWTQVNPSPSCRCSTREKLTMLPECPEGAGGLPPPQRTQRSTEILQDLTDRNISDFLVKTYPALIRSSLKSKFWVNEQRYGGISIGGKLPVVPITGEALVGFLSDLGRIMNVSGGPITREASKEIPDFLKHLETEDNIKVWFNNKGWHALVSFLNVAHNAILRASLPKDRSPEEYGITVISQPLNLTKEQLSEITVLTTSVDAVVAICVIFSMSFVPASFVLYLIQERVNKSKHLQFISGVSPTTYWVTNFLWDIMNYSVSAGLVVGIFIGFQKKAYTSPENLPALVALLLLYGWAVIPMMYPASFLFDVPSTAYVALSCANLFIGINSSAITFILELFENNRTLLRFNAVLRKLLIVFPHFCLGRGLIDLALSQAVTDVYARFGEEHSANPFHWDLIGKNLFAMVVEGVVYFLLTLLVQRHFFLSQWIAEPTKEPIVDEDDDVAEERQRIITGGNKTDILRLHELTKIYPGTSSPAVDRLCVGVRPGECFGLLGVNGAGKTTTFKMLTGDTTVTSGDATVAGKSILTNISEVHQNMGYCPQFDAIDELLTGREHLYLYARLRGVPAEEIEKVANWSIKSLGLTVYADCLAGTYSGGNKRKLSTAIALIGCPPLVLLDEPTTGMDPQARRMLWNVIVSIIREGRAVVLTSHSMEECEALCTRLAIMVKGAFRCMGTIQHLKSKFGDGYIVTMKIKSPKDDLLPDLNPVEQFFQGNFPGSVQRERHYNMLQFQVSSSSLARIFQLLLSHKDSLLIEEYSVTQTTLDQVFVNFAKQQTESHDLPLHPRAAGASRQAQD
protocol text: A4 correction dose-response assay: ABCA4 P1380L HiBit protein expression
Assay type: cell-based
settings: HEK-293 cells stably expressing HiBit-tagged ABCA4 P1380L; 24 h treatment; top concentration 30 μM; read-out: ABCA4 P1380L EC50, Emax
Description: Exemplary compounds were evaluated in an A4 correction dose-response assay. […] Dose response curves include eleven doses with the top final concentration at 30 μM in 0.3% DMSO. […] The plates are rotated at room temperature for 2 minutes and incubated for 1 hour at 25° C. before luminescent signal is acquired using an EnVision Multimode Plate Reader (PerkinElmer).
pEC50: −log10 of the molar value.
readout name: pEC50

smiles_representation=Cc1nc(C(F)(F)F)cc(C2CC2)c1Oc1nc(-c2cncc(C#N)c2)ccc1NS(C)(=O)=O assay_value="> 6.00"
smiles_representation=Cc1nc(C)c(Oc2nc(-c3cncc(Cl)c3)ccc2NS(C)(=O)=O)c(C2CC2)n1 assay_value="5.00 to 6.00"
smiles_representation=Cc1cc(C)c(Oc2nc(N3CC4CC(C3)N4C(=O)C3CC3)ccc2NS(C)(=O)=O)c(C)c1 assay_value="5.00 to 6.00"
smiles_representation=Cc1cc(Oc2nc(-c3cncc(C#N)c3)ccc2NS(C)(=O)=O)nn1C assay_value="> 4.60"
smiles_representation=Cc1cc(C)c(Oc2cc(-c3cncc(Cl)c3)cnc2NS(=O)(=O)c2cnn(C)c2)c(C)c1 assay_value="< 4.60"
smiles_representation=Cc1nc(C(F)F)nc(C2CC2)c1Oc1nc(-c2cncc(C#N)c2)ccc1NS(C)(=O)=O assay_value="> 6.00"
smiles_representation=Cc1nc(C)c(Oc2nc(-c3cncc(C#N)c3)ccc2NS(C)(=O)=O)c(C)n1 assay_value="> 6.00"
smiles_representation=CCS(=O)(=O)Nc1ccc(-c2cncc(C#N)c2)nc1Oc1c(C)cc(C(F)(F)F)nc1C assay_value="> 6.00"
smiles_representation=Cc1cc(C)c(Oc2nc(-c3cncc(CO)c3)ccc2NS(C)(=O)=O)c(C)n1 assay_value="5.00 to 6.00"

----------
target desc: ABCC6 WT (Homo sapiens)
Sequence (O95255 whole entry): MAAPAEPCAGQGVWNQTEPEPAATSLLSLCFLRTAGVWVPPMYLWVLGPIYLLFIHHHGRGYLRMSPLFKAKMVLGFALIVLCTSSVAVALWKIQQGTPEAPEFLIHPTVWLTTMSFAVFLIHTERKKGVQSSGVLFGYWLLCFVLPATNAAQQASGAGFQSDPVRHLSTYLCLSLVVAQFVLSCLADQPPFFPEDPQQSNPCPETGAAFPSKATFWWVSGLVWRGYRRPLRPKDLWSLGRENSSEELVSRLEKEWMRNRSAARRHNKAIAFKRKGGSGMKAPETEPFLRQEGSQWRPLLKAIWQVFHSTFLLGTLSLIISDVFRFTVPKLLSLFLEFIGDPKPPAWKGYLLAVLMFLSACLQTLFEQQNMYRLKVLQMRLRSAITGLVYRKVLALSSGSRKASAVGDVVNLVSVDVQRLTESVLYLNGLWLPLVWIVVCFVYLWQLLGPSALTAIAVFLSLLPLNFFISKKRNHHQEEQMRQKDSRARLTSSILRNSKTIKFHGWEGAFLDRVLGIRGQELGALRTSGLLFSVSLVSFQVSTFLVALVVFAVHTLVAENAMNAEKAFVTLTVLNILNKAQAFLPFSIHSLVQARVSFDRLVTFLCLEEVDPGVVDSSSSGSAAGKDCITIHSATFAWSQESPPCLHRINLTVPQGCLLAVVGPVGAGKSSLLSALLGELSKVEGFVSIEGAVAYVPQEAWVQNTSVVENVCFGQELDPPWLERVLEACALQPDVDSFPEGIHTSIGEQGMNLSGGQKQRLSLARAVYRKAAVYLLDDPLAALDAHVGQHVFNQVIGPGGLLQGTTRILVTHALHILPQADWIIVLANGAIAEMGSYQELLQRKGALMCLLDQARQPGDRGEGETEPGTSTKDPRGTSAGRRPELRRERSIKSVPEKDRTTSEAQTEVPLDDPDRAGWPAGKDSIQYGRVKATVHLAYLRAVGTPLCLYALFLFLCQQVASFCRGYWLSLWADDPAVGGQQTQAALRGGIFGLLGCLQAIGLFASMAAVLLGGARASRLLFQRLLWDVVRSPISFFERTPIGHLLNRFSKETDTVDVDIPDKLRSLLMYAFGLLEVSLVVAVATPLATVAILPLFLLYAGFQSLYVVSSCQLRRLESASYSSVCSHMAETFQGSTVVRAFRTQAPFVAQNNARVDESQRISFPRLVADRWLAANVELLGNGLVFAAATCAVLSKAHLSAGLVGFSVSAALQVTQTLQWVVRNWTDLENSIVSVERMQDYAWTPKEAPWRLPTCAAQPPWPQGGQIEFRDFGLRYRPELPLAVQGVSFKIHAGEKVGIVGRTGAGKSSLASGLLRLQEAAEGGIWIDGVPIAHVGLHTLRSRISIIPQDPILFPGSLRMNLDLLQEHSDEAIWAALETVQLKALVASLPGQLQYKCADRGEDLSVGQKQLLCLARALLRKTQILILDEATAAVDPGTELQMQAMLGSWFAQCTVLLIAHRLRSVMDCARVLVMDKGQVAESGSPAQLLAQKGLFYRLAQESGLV
protocol text: ABCC6 WT assay: HiBit protein expression
settings: HEK-293 cells transiently expressing HiBit-tagged ABCC6 WT; 24 h treatment; top concentration 20 μM; read-out: ABCC6 WT EC50, Emax
pEC50: −log10 of the molar value.
readout name: pEC50

molecule=Cc1cc(C)c(Oc2nc(-c3cncc(N4CCC4)c3)ccc2NS(C)(=O)=O)c(C)n1 assay_value="> 6.00"
molecule=Cc1cc(C)c(Oc2nc(-c3cncc(C(N)=O)c3)ccc2NS(C)(=O)=O)c(C2CC2)n1 assay_value="> 6.00"
molecule="Cc1cc(C)c(Oc2nc(-c3cncc(C#N)c3)ccc2S(C)(=N)=O)c(C)n1 (stereo not drawn)" assay_value="≤ 4.60"
molecule=Cc1cc(C)c(Oc2nc(N3CCN(C(=O)C4(C)CC4)CC3)ccc2NS(C)(=O)=O)c(C)c1 assay_value="5.00 to 6.00"
molecule="Cc1cc(C)c(Oc2nc(N3CC4CC3CN4C(=O)C3CC3)ccc2NS(C)(=O)=O)c(C)c1 (single isomer, unassigned) [Compound I-18]" assay_value="5.00 to 6.00"
molecule=Cc1cc(C(F)F)nc(C)c1Oc1nc(-c2cncc(Cl)c2)ccc1NS(C)(=O)=O assay_value="> 6.00"

----------
target desc: ABCD2 WT (Homo sapiens, UniProt Q9UBJ2)
Sequence (Q9UBJ2 whole entry): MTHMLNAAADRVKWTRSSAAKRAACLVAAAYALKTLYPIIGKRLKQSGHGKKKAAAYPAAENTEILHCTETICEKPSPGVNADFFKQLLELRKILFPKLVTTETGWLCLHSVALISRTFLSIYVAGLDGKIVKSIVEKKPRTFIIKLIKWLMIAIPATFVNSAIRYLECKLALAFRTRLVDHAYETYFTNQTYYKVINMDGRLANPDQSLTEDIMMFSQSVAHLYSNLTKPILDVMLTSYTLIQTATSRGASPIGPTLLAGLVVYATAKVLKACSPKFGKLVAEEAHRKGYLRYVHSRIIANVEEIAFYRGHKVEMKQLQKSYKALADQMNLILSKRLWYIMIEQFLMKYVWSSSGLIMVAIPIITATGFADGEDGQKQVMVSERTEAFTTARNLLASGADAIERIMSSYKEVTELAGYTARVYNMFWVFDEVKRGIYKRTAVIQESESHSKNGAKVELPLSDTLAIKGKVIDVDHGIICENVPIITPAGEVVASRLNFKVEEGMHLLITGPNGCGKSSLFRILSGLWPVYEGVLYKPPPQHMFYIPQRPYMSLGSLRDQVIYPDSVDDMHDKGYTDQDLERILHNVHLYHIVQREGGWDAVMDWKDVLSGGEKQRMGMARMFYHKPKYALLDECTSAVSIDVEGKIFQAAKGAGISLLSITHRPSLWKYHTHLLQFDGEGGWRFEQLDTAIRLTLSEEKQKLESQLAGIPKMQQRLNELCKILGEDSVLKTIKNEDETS
protocol text: D2 correction dose-response assay: ABCD2 WT HiBit protein expression
settings: HEK-293/ABCD2 WT cells, 24 hours treatment, HiBit luminescence; class combines EC50 and Mean MaxAct (fold); read-out: ABCD2 WT EC50, Emax
pEC50: −log10 of the molar value.
Listed next: entries and their corresponding pEC50.
readout name: pEC50

smiles_representation=Cc1cc(C)c(Oc2nc(-c3ccnc(C#N)c3)ccc2NS(C)(=O)=O)c(C)n1 assay_value="> 6.00"
smiles_representation=Cc1cc(OC2CC2)nc(C)c1Oc1nc(-c2cncc(C#N)c2)ccc1NS(C)(=O)=O assay_value="> 6.00"
smiles_representation=Cc1cc(C(F)F)nc(C)c1Oc1nc(-c2ccnc(C#N)c2)ccc1NS(C)(=O)=O assay_value="> 6.00"
smiles_representation=CNS(=O)(=O)c1ccc(-c2cncc(C#N)c2)nc1Oc1nc(C2CC2)sc1C assay_value="< 4.60"
